subject.of.test: Gal(a1-3)GalNAc
run.description: glycan array binding signal (z-score within array); higher = stronger binding
experimental.context: glycan notation: IUPAC condensed, linker removed
The entries come from a sample that favours the strongest signals as a whole.
The following binders are listed with their measured glycan array binding signal (z-score) values.
assay.readout: glycan array binding signal (z-score)

{"binder": "Eosinophil-derived neurotoxin (EDN) (Homo sapiens), P10153 (protein) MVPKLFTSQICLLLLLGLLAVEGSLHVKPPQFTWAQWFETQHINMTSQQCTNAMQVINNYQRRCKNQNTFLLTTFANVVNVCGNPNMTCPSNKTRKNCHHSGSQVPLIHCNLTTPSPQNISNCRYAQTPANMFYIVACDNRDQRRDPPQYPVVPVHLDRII", "assay.readout": "glycan array binding signal (z-score)", "result": -0.593}
{"binder": "SRS2 (Toxoplasma gondii), O15695 (protein) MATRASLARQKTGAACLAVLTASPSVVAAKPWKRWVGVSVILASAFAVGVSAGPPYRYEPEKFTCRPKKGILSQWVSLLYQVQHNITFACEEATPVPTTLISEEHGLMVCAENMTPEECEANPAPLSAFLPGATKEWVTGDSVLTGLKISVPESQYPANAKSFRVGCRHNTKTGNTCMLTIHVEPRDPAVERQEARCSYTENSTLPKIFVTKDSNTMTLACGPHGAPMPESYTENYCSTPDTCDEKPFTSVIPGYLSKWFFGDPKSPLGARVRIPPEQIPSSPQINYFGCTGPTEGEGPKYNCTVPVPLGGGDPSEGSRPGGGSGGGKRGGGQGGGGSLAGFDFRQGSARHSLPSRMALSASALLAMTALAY", "assay.readout": "glycan array binding signal (z-score)", "result": 0.369}
